- Measurement Target: Ubiquitin carboxyl-terminal hydrolase 30 (Homo sapiens)
- Assay Remarks: inhibitors of ubiquitin-specific protease 30 deubiquitylating enzyme, concentration dependence, in vitro biochemical, validation of primary hits (AID 1645865)
- Condition Info: purified USP30, Ub-rhodamine cleavage, fluorescence, 2 h
Calls of active or inactive are those of the source.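 Rule for the calls: active = maximal inhibition of the USP30 enzyme reaching 30% or more across the dose series; inactive = the rest.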
Write down one outcome, taken from t = active, f = inactive

compound=CCN(CC)c1nc(F)c2c(c1F)S(=O)(=O)CCN2Cc1ccccc1 discrete_label=f
compound="CN1CC2CN(C(=O)c3ccc(F)cc3)CCN2Cc2ccccc21 (stereo not given)" discrete_label=f
compound=CCn1c(COc2cccc(C(F)(F)F)c2)nnc1SCc1ccc(Cl)cc1 discrete_label=t
compound="Cc1nc(CN2CCn3c(Cn4cccn4)cnc3C2C)cs1 (stereo not given)" discrete_label=f
compound=CC(=O)N1CCc2cc(S(=O)(=O)NCCC(=O)Nc3cccc(C)c3C)ccc21 discrete_label=t
compound="Cn1cccc1C(=O)N1CCCC2(C1)Nc1cccnc1NC2=NC1CCCC1 (stereo not given)" discrete_label=f
compound=CC(=O)Nc1cc(-c2cccc(O)c2)cn2c(-c3cnn(C)c3)cnc12 discrete_label=t
compound=COc1cccc(Cn2nc3n(CC(C)C)c(=O)c4ccc(C(=O)NCC(C)C)cc4n3c2=O)c1 discrete_label=t

Hello, I am checking results. What call was entered for `Cc1ccc(C)c(Nc2cc(C)nc3nc(-c4ccco4)nn23)c1` ?
f

Hi team, can someone confirm the assay call for CCN1CCCC1CN(Cc1cc2cc(OC)ccc2[nH]c1=O)C(=O)NCc1ccccc1 (stereo not given) ?
f

----------
- Measurement Target: Ubiquitin carboxyl-terminal hydrolase 30 (Homo sapiens) (UniProt Q70CQ3)
- Sequence (Q70CQ3 whole entry, looked up): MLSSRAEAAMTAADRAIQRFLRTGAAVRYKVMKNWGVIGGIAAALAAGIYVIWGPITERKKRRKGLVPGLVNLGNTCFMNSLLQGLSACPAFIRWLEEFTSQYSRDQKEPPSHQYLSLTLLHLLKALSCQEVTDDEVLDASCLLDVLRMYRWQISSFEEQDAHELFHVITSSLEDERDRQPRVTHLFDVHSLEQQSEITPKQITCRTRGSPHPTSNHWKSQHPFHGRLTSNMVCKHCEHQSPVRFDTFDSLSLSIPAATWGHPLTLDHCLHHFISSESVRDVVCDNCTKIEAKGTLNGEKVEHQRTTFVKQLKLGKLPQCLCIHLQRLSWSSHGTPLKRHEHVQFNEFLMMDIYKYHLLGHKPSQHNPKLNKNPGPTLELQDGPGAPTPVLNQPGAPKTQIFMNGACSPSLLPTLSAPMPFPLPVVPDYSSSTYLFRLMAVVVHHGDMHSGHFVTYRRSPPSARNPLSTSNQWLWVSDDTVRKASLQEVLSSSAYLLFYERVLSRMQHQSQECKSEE
- Assay Remarks: inhibitors of ubiquitin-specific protease 30 deubiquitylating enzyme, concentration dependence, in vitro biochemical, validation of primary hits (AID 1645865)
- Condition Info: purified USP30, Ub-rhodamine cleavage, fluorescence, 2 h
Active and inactive are the calls of the source.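 How the source made its calls: active means maximal inhibition of the USP30 enzyme reaching 30% or more across the dose series; inactive means the rest.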
Please answer using one outcome listed in TRUE (active), FALSE (inactive)

molecule=Cn1nc(-c2ccccc2)c(COC(=O)c2ccc([N+](=O)[O-])cc2)c1Cl discrete_label=TRUE
molecule=N#Cc1cccnc1N1CCN(C(=O)Nc2cccc3ccccc23)CC1 discrete_label=FALSE

Identify the outcome logged in this assay for the molecule shown: `CCC(=O)OCc1cnc(C)c2oc(=O)c(-c3nc(-c4ccccc4)no3)cc12`
FALSE

Lab log entry: `Cc1nc(C(=O)N[C@@H](C)C(=O)NCc2ccc3c(c2)OCO3)cc2c1[nH]c1ccccc12` — outcome as called in the assay?
FALSE

Outcome logged for O=C(Nc1ccc(F)cc1F)NC1CCN(c2ccccc2)C1=O (stereo not given) in this assay:
TRUE

----------
- Measurement Target: UniProt:Q70CQ3
- Assay Remarks: inhibitors of ubiquitin-specific protease 30 deubiquitylating enzyme, concentration dependence, in vitro biochemical, validation of primary hits (AID 1645865)
- Condition Info: purified USP30, Ub-rhodamine cleavage, fluorescence, 2 h
Activity calls are given as the source filed them.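 Rule for the calls: active = maximal inhibition of the USP30 enzyme reaching 30% or more across the dose series; inactive = the rest.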
Listed next: entries and their corresponding IC50.

Worked cases, IC50 given:
molecule=COc1ccc2c(c1)CCc1c(C(=O)NCc3cccnc3)noc1-2 measurement_target=UniProt:Q70CQ3 parameter=IC50 measurement="19.4 µM"
molecule=CCn1c(Cn2cccn2)nc2cc(NC(=O)c3ccc(F)cc3)ccc21 measurement_target=UniProt:Q70CQ3 parameter=IC50 measurement="> 50 µM (inactive)"
molecule=O=C(COC(=O)c1ccc2ncsc2c1)Nc1ccccc1F measurement_target=UniProt:Q70CQ3 parameter=IC50 measurement="> 50 µM (inactive)"
molecule=COc1ccccc1CNC(=O)Nc1cccc2ccccc12 measurement_target=UniProt:Q70CQ3 parameter=IC50 measurement="25.9 µM"
molecule="CC1CCc2c(sc3ncnc(NC4CCN(CC(N)=O)CC4)c23)C1 (stereo unspecified)" measurement_target=UniProt:Q70CQ3 parameter=IC50 measurement="> 50 µM (inactive)"

Look up and state reported IC50 for Cc1ncncc1C(=O)N1CCCC(C)(c2ncc(Cc3cccc(F)c3)o2)C1 (stereo unspecified)
> 50 µM (inactive)

Indicate its recorded IC50; the molecule in question is `O=C(Nc1ccccc1-c1nc2ccccc2[nH]1)c1sc2ccccc2c1Cl`
1.76 µM

Look up and state reported IC50 for `COc1ccc(-c2nc(CNC(=O)COc3ccc(C)cc3)cs2)cc1`
36.3 µM
